Tested on: Swiss mice, Sarcoma 180 sc, mean tumor weight T/C
test_protocol: NCI In Vivo Anticancer Drug Screen. Data for tumor model Sarcoma 180 (subcutaneous) in Swiss mice
condition_description: endpoint: mean tumor weight; dose: 250.0 mg/kg/injection; schedule: Q01DX007 (sc); vehicle: steriod suspending solution; higher = larger tumour
# T/C values compiled below

For orientation, consider the following solved cases.
[
  {
    "input_smiles": "COc1ccc2c(c1)CC[C@@H]1[C@@H]2CC[C@@]2(C)[C@H]1CC[C@@]2(O)C(F)=C(F)F",
    "data_value": "50 % of control"
  },
  {
    "input_smiles": "CC[C@H](c1ccc(O)cc1)[C@@H](CC)c1ccc(O)cc1",
    "data_value": "54 % of control"
  },
  {
    "input_smiles": "CC(=O)[C@@]1(O)CC[C@H]2[C@@H]3CCC4=CC(=O)CC[C@]4(C)[C@@]3(F)[C@@H](O)C[C@@]21C",
    "data_value": "58 % of control"
  },
  {
    "input_smiles": "CCC(=O)O[C@H]1CC[C@H]2[C@@H]3CCC4=CC(=O)CC[C@]4(C)[C@H]3CC[C@]12C",
    "data_value": "102 % of control"
  },
  {
    "input_smiles": "C[C@]12CC[C@@H]3c4ccc(OC(=O)c5ccccc5)cc4CC[C@H]3[C@@H]1CC[C@@H]2O",
    "data_value": "55 % of control"
  },
  {
    "input_smiles": "CC(=O)[C@H]1CC[C@H]2[C@@H]3CCC4=CC(=O)CC[C@]4(C)[C@H]3CC[C@]12C",
    "data_value": "76 % of control"
  }
]

Now turn to the next molecule.
Memo: `CCC(=O)O[C@H]1CC[C@H]2[C@@H]3CC[C@H]4CC(=O)[C@H](C)C[C@]4(C)[C@H]3CC[C@]12C` , reported T/C: 101 % of control

====

# T/C values compiled below
System: Swiss mice, Sarcoma 180 sc, mean tumor weight T/C
test_protocol: NCI In Vivo Anticancer Drug Screen. Data for tumor model Sarcoma 180 (subcutaneous) in Swiss mice
condition_description: endpoint: mean tumor weight; dose: 1.0 mg/kg/injection; schedule: Q01DX007 (ip); vehicle: carboxymethylcellulose (CMC); higher = larger tumour

For orientation, consider the following solved cases.
[
  {
    "compound": "N#[N+]c1cnc([O-])[nH]c1=O",
    "assayed_system": "Swiss mice, Sarcoma 180 sc, mean tumor weight T/C",
    "T/C": "103 % of control"
  },
  {
    "compound": "NC(=O)c1n[se]nc1N",
    "assayed_system": "Swiss mice, Sarcoma 180 sc, mean tumor weight T/C",
    "T/C": "65 % of control"
  },
  {
    "compound": "C[C@]12CC[C@H](OC3OC(CO)C(O)C(O)C3O)C[C@H]1CC[C@@H]1[C@@H]2CC[C@]2(C)[C@@H](C3=CCOC3=O)CC[C@]12O (some centres undefined)",
    "assayed_system": "Swiss mice, Sarcoma 180 sc, mean tumor weight T/C",
    "T/C": "28 % of control"
  }
]

Now turn to the next compound.
The reported Swiss mice, Sarcoma 180 sc, mean tumor weight T/C T/C of CN1CCCC1c1cccnc1 (centres undefined) is 66 % of control
